Test system: H2030
Test: Combinatorial activity in LUAD cell line H2030
Format: cell-based
Settings: Homo sapiens, NCI-H2030; H2030, KRAS G12C; single agent; read-out: (nM) s.a.
PROPERTY_MEASURED: IC50 (nM)
Quick reminder: number only, in nM, skip the unit.

Reported IC50 ( CC(C)n1c(C(C)(C)O)nc2c(F)cc(-c3nc(N[C@@H]4CCOC[C@H]4O)ncc3Cl)cc21 [PF-07220060] ) = 950

---

Test system: ABC1
Experiment: Combinatorial activity in LUAD cell line ABC1
Type: cell-based
Details: Homo sapiens, ABC-1; ABC1, WT; single agent; read-out: (nM) s.a.
PROPERTY_MEASURED: IC50 (nM)
The response must be a number in nM with no trailing unit.

Measured IC50, CC(C)n1c(C(C)(C)O)nc2c(F)cc(-c3nc(N[C@@H]4CCOC[C@H]4O)ncc3Cl)cc21 [PF-07220060] : 408

Now consider the entry below.
For COCc1cc(C(=O)Nc2cc([C@H]3CC[C@@H](OC(=O)NC(C)C)C3)[nH]n2)n(C)n1 [PF-07104091] the compound record lists IC50 as 716
